A set of compounds tested on PI3Kγ (Homo sapiens), with measured pIC50:
Scale explanation: pIC50 corresponds to minus log10 of a concentration expressed in moles per litre.

The following compounds have reported results that may help.
pIC50 reported for this compound COCC1CN(C(=O)C2CCN(c3ccnc4c3c(/C=C3\Oc5ccc(NC(=O)Nc6cccnc6)cc5C3=O)cn4C)CC2)CCO1 (stereo not shown) : 5.55

pIC50 for `Cn1cc(/C=C2\Oc3ccc(NC(=O)Nc4cccnc4)cc3C2=O)c2c(N3CCC(C(=O)N4C5CCCC4COC5)CC3)ccnc21` is 5.86

Input `COCCN(C)C(=O)C1CCN(c2ccnc3c2c(/C=C2\Oc4ccc(NC(=O)Nc5cccnc5)cc4C2=O)cn3C)CC1` . Output pIC50: 5.81

Continuing:
Measured pIC50 of `Cn1cc(/C=C2\Oc3cccc(O)c3C2=O)c2c(-c3ccc(C(=O)N4CCN(CCO)CC4)cc3)ccnc21` : 7.00

Numbers sourced from patent US20090298820A1.
